Listing of entries alongside the reported Ki.
biological target: recombinant human D2 receptor (Homo sapiens); assay: biochemical; format: binding; conditions: read-out: D2 [3H]YM 09151-2 Ki; in μM
Sequence (P14416 whole entry): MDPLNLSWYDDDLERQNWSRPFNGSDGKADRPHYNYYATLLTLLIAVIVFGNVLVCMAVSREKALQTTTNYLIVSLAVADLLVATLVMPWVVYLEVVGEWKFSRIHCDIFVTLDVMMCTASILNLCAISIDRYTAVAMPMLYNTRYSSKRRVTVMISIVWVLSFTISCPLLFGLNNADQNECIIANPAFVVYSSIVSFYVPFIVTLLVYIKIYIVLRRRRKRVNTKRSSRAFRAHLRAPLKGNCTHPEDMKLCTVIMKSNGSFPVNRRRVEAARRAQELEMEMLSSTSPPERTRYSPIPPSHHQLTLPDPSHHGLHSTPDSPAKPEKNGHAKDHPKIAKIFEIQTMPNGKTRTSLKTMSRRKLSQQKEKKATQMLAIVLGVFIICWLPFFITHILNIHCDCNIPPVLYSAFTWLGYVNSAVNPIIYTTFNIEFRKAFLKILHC

compound="O[C@H](c1cc(C(F)(F)F)nc2c(C(F)(F)F)cccc12)[C@@H]1CCCCN1 [(+)-Mefloquine]" measured_quantity=Ki obs_value="> 10 µM"

Okay, next one:
Problem: Would you kindly share the measured Ki for OC(c1cc(C(F)(F)F)nc2c(C(F)(F)F)cccc12)C1CCCCN1 (single isomer, unassigned; (-)) [(−)-Mefloquine] ?
Result: > 10 µM

* * *

target: recombinant human D2 receptor (Homo sapiens); test: cell-based; assay type: cell-based; details: read-out: D2 mitogenesis EC50 (nM) ± SEM (n)
Measured Quantity: EC50 (nM)
Quick note: give the figure in nM, leave out the unit.

Problem: Would you kindly share the measured EC50 for CCN(CC)C(=O)[C@@H]1C=C2c3cccc4[nH]cc(c34)C[C@H]2N(C)C1 [LSD, lysergic acid diethylamide] ?
Result: 18.1

This collection of values is drawn from paper PMC4097020.
